# Assay Procedure: NCI Yeast Anticancer Drug Screen. Data for the mec2-1 strain (AID 157)
# Condition Description: S. cerevisiae mec2-1 strain, at 5.0 µM (retest, dose inferred, filed as 0.5)
Compounds without any hit were thinned out: in the full panel of roughly 79,000, 15% have a hit. The source made the active and inactive calls. Rule as the data show it: active = growth inhibition above about 70%; inactive = the rest.
# valid calls are active, inactive; nothing else

Some entries whose results are on file:
| Molecule | Class Label |
| --- | --- |
| COC(=O)C1=C(C)NC(C)=C(C(=O)OC)C1c1cccc(/[N+]([O-])=C/c2ccccc2)c1 | inactive |
| Cc1c(C(Cc2ccccc2N(C)C(=O)/C=C\C(=O)O)c2c[nH]c3ccccc23)c2ccccc2n1C (stereo not given) | inactive |
| Cc1ccc(Nc2nc3c(=O)n(C)c(=O)n(C)c3nc2Nc2ccc(C)cc2)cc1 | inactive |

Task item: Please let me know the test result on file for CCN(CC)CC(O)c1ccc2ccc3ccccc3c2c1 (stereo not given) .
Reply: inactive

Task item: Please let me know the test result on file for CC(CC(C)(C)[N+](C)(C)C)[N+](C)(C)C (stereo not given) .
Reply: inactive

Task item: Please let me know the test result on file for C=CC(C)(O)CCC1C(=C)C(O)CC2C(C)(C)CCCC12C (stereo not given) .
Reply: inactive

Task item: Please let me know the test result on file for O=C(Cc1csc2[n+]1C(=O)/C(=C/c1ccc(Cl)cc1)S2)Nc1ccccc1 .
Reply: inactive

Task item: Please let me know the test result on file for COC1=CC(=O)C(C2(OC(C)C)OC(=O)C(Cl)=C2Cl)=CC1=O (stereo not given) .
Reply: inactive

Task item: Please let me know the test result on file for O=C([O][Sn]([O]C(=O)c1ccccc1)([c]1ccccc1)[c]1ccccc1)c1ccccc1 .
Reply: inactive

Task item: Please let me know the test result on file for CC[C@@]1(O)C(=O)OCc2c1cc1n(c2=O)Cc2cc3c(CN(C)C)c(O)ccc3nc2-1 .
Reply: inactive

Task item: Please let me know the test result on file for CCCCc1cc(O)ccc1O .
Reply: inactive

Task item: Please let me know the test result on file for CC(C)(CN1CCCCC1)C(=O)CC(SCCS(=O)(=O)O)c1ccc(Br)cc1 (stereo not given) .
Reply: inactive

Task item: Please let me know the test result on file for O=C1Nc2ccc(Cl)c(I)c2C1=O .
Reply: inactive

Task item: Please let me know the test result on file for C/C(=N\NC(=S)N1CCCCC1)c1cccc(C)n1 .
Reply: active

Task item: Please let me know the test result on file for CC1=C(SCCO)C(=O)c2ccccc2C1=O .
Reply: inactive

Task item: Please let me know the test result on file for CC(=O)OCC(=O)C1(O)CCC2C3CCC4CCCCC4(C)C3CCC21C (stereo not given) .
Reply: inactive

Task item: Please let me know the test result on file for CCCCCCCCCCNC(=O)OCC .
Reply: inactive

Task item: Please let me know the test result on file for COc1cc2c3c(cccc3c1)C(=O)N(CCN(C)C)C2=O .
Reply: inactive

Task item: Please let me know the test result on file for O=C(O)c1cccc(-c2c3ccc(=O)cc-3oc3cc(O)ccc23)c1 .
Reply: active

Task item: Please let me know the test result on file for Fc1ccc(NC(=S)SCc2ccc(Cl)c(Cl)c2)cc1F .
Reply: inactive

Task item: Please let me know the test result on file for COc1cc(C2SCC(=O)N2c2nnc(C(F)(F)F)s2)cc(OC)c1OC (stereo not given) .
Reply: inactive

Task item: Please let me know the test result on file for CCN(CC)[P+](c1ccccc1O)(N(CC)CC)N(CC)CC .
Reply: inactive

Task item: Please let me know the test result on file for CCOC(=O)c1cnc2c(C(F)(F)F)cccc2c1N=[N+]=[N-] .
Reply: inactive

Provenance of the data: PubChem BioAssay (NCI)
